The origin of these recorded values is paper PMC5540273.

# Test system: PRKX;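 note: KINOMEscan kinase panel screen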
# condition details: concentration: 1 μM, replicates: in singlicate; n = 1
%Inh reference
measured quantity: %Inh (%)

Nc1nc(-c2nccs2)c(-c2ccnc3ccccc23)s1 [GW693542]    10
C[C@@H]1CCCCN1c1cc(-c2ccc3c(N)n[nH]c3c2)nc(N)n1 [GSK2258759]    15
Cc1ccccc1-n1cnc2c(N)ncnc21 [SKF-97510]    0
Cc1cccc(-c2nc(-c3ccc(S(C)(=O)=O)cc3)sc2-c2ccnc(NCCc3ccccc3)c2)c1    0
Fc1cc(Cl)ccc1Nc1ccnc2cc(-c3ccc(CN4CCCCC4)o3)ccc12 [GW560116]    0
Nc1ncnc2[nH]c(-c3ccccc3)nc12 [AH5015]    0
CCCc1ccc(S(=O)(=O)NC2CCN(c3ccnc(Nc4ccc(F)cc4)n3)C2)cc1 (centres unmarked) [GSK1379715]    1
CC1=C(C(=O)Nc2cc3cn[nH]c3cc2F)C(c2ccc(C(F)(F)F)cc2)CC(=O)N1 (centres unmarked) [GSK429286]    87
Cn1ccc2ncnc(Oc3ccc(NC(=O)Nc4ccccc4)cc3)c21    0
CC(=O)Nc1nc2cnc(Nc3cc(NC(=O)c4cccc(CCC#N)c4)ccc3C)nc2s1    13
CCn1c(-c2cccnc2O)nc2cnccc21 [SB-736715]    0
Fc1cccc(COc2nnc(-c3ccc4c(c3)CCO4)o2)c1    0
COc1ccc2nc(-c3cccc(C)n3)nc(Nc3ccncc3)c2c1 [GSK204919]    7
Cc1cccc(-c2cc(Nc3ccncc3)c3ccccc3n2)n1 [GSK223675]    16
Cc1cc(N2Cc3ccccc3C2)nc(Nc2ccc(S(=O)(=O)N3CCOCC3)cc2)n1.Cl [GSK1669917]    0
COc1cccc(-c2cc(-c3c[nH]nc3-c3ccccn3)ccn2)c1 [GW680338]    0
COc1cc2nccc(Nc3ccc(NC(=O)c4ccc(C)cc4)c(O)c3)c2cc1OC.Cl [GW440132]    18
